Molecular target: Light Organ Adenylate Cyclase
Experiment: Antagonist inhibition of agonist-stimulated light organ adenylate cyclase
Format: biochemical, firefly
Details: inhibiting stimulation by octopamine (OCT); read-out: Calculated Ki
pKi: −log10 of the molar value.
reported_endpoint: pKi

In [3]: df
Out[3]:
                          smiles_code  reported_endpoint  quantitative_readout
0  Cc1ccc(N(CC2=NCCN2)c2cccc(O)c2)cc1                pKi                  4.34

---

Molecular target: octopamine receptor
Assay: Reversible binding of compound VIII to light organ membranes (filtration)
Details: specific binding, light organ membranes; read-out: concentration at which 50% binding occurs
reported_endpoint: Kd

                                smiles_code  reported_endpoint   result
0  [3H]c1c(CC)c(N=C2NCCN2)c(CC)c([3H])c1N=[N+]=[N-]                 Kd  ~800 nM

---

Test system: Light Organ Adenylate Cyclase
Experiment: Antagonist inhibition of agonist-stimulated light organ adenylate cyclase
Type: biochemical, firefly
Conditions: stimulation by compound IV
reported_endpoint: inhibition of compound IV stimulation of adenylate cyclase (in words)

                                   compound     result
0  CN1CCC(=C2c3ccccc3C=Cc3ccccc32)CC1 [Cyproheptadine, cyproheptadine]  inhibited
1  Cc1ccc(N(CC2=NCCN2)c2cccc(O)c2)cc1 [Phentolamine, phentolamine]  inhibited
2  CN1CCN2c3ccccc3Cc3ccccc3C2C1 (stereo not shown) [Mianserin, mianserin]  inhibited
